The measured values listed here are drawn from ChEMBL document CHEMBL3994624.

Overview of reported selectivity ratio across a group of compounds:
# measurement-description: Selectivity index, ratio of IC50 for CHO cells to IC50 for chloroquine-sensitive Plasmodium falciparum NF54
# Type: toxicity
# experimental-parameters: hamster, read-out: Ratio IC50
Reply with the value as a number alone.

Fill in the blank: the reported selectivity ratio of CN1CCC(Nc2cc(-c3ccc(C(F)(F)F)cc3)c(C#N)c3nc4ccccc4n23)CC1 is ____.
14

====

# measurement-description: Half life in C57/Bl6 mouse at 2.5 mg/kg, iv by LC-MS method
# Format: ADME, organism-based
# experimental-parameters: in vivo
measured-endpoint: half-life (h)
Write down the numeric answer in h and omit the unit.

CCNCCNc1cc(-c2ccc(C(F)(F)F)cc2)c(C#N)c2nc3cc(Cl)c(Cl)cc3n12    15

Fill in the blank: the reported half-life of CCNCCNc1cc(-c2ccc(C(F)(F)F)cc2)c(C#N)c2nc3cc(Cl)cc(Cl)c3n12 is ____.
21
